In this section we review reported amyloid nucleation score values for a set of substances.
experiment: amyloid nucleation score (Sup35N fusion, yeast selection) (log enrichment); library NNK2; higher = more nucleation; inactive = no reads after selection;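 also: zero at mode of non-aggregating sequences after 7 days selection at 30°C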
Would you mind answering with just the numeric figure?

Example entries begin here.
>>> quantitativeresult("GLGGTTFI")
-1.04
>>> quantitativeresult("CPDHNGRFGSWVGEYHVGLS")
1.43

# input Specify amyloid nucleation score for VESLFGYW and stop.
# output -0.889

# input Specify amyloid nucleation score for MYTYLINVNVSDAFTLYGLE and stop.
# output 4.43

# input Specify amyloid nucleation score for FSTRGSAMLRVAGLSGPRAS and stop.
# output 0.29

# input Specify amyloid nucleation score for APTQDTLEFRHISFEVVWRT and stop.
# output 2.84

# input Specify amyloid nucleation score for YTLDMIIELSLDDGGYVVWG and stop.
# output 4.76

# input Specify amyloid nucleation score for VRITVSSSLALWLVWLSHYR and stop.
# output -0.167
